Biological target: T1, VcPHR (CPD photolyase, MBP fusion) (Vibrio cholerae, UniProt Q9KNA8 1-469)
T1 sequence: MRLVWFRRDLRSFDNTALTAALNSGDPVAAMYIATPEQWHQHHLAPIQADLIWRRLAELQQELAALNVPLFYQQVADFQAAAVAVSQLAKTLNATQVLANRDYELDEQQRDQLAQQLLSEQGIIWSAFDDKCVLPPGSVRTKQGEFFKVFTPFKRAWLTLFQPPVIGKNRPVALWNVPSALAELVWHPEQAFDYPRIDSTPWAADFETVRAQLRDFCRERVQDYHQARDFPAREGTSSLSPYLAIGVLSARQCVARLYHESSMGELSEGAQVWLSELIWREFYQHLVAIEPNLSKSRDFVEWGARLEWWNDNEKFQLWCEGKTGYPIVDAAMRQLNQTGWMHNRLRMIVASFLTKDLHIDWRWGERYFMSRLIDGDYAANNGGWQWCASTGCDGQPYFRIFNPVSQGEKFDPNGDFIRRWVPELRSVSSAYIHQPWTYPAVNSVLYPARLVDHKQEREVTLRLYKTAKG
Experiment: SPR; photoactivated, DTT; described as nonspecific; SPR (SensiQ Discovery, neutravidin BioCap chip), 1X PBS (10 mM phosphate, 2.7 mM KCl, 137 mM NaCl) pH 7.4, 0.005% Tween 20, 25 C, 50 uL/min; protein in PBS with 1 mM DTT
Settings: protein: recombinant; tags: MBP (pMal-c2x, pUNC2001); label: 5'-biotin
readoutKind: Kd (µM)
Respond with the bare value in µM.

Looking up GACGCAGATCTACGAATTCGCTTAATTCGCTGCACCGGATCCCGCTAG (ssDNA) [undamaged ssDNA 48-mer] , I found its Kd recorded as 14

Origin of the recorded values: paper PMC3430658
